The measurements presented in this section are drawn from patent US20060089378A1.

Target: Cannabinoid CB2 Receptor (Homo sapiens)
Construct: expressed in transfected cells
Assay: Binding assay for CB2 agonists or inverse agonists (radioligand competition, membranes of transfected SK-N-MC cells)
Settings: test concentration of 0.2 μM; compounds without an IC50 binding value; read-out: Cannabinoid CB2 Receptor Binding percent inhibition
Assignment: determine reported inhibition at 0.2 µM for the given molecules.
Give the value, in units of %, as a plain number.

Returns the measured inhibition at 0.2 µM for the input molecule. Input: CCOC(=O)CN1CCc2c(c(C(=O)NC3C4(C)CCC(C4)C3(C)C)nn2C2CCCCC2)C1 (stereo not shown) 49

Returns the measured inhibition at 0.2 µM for the input molecule. Input: `CC(C)(C)OC(=O)N1C/C(=C\c2ccc(F)cc2)c2c(c(C(=O)NN3CCC(O)CC3)nn2-c2ccc(Cl)cc2Cl)C1` 0

Returns the measured inhibition at 0.2 µM for the input molecule. Input: `COc1ccc(/C=C2\CN(C(=O)OC(C)(C)C)Cc3c(C(=O)NN4CCC(O)CC4)nn(-c4ccc(Cl)cc4Cl)c32)cc1` 9

Returns the measured inhibition at 0.2 µM for the input molecule. Input: CC(C)(C)OC(=O)N1C/C(=C\c2ccc(F)cc2)c2c(c(C(=O)NN3CC4CCCC4C3)nn2-c2ccc(Cl)cc2)C1 (stereo not shown) 12

Returns the measured inhibition at 0.2 µM for the input molecule. Input: `COC(=O)N1C/C(=C\c2ccc(F)cc2)c2c(c(C(=O)NN3CCC(O)CC3)nn2-c2ccc(Cl)cc2Cl)C1` 11

Returns the measured inhibition at 0.2 µM for the input molecule. Input: `O=C(NN1CCC(O)CC1)c1nn(-c2ccc(Cl)cc2Cl)c2c1CNC/C2=C\c1ccc(F)cc1` 5

Returns the measured inhibition at 0.2 µM for the input molecule. Input: `COc1ccc(/C=C2\CN(C(=O)OC(C)(C)C)Cc3c(C(=O)N4CCCCC4)nn(-c4ccc(Cl)cc4Cl)c32)cc1` 42

* * *

Biological target: CB1 receptor (human) (Homo sapiens)
Assay: cell-based
Please note: EC50 exactly at 4 nM is FALSE. Only values below 4 nM get TRUE.

Problem: For the compound `C[C@@H](NC(=O)c1nn(-c2ccc(Cl)cc2Cl)c2c1CN(C(=O)OC(C)(C)C)C/C2=C\c1ccc(F)cc1)c1ccccn1` , is EC50 under 4 nM? FALSE

Problem: For the compound CCCCn1nc(C(=O)NC2C3(C)CCC(C3)C2(C)C)c2c1CCN(C(=O)OC)C2 (stereo not shown) , is EC50 under 4 nM? FALSE

Problem: For the compound `C[C@@H](NC(=O)c1nn(-c2ccc(Cl)cc2Cl)c2c1CNC/C2=C\c1ccc(F)cc1)c1ccccn1` , is EC50 under 4 nM? FALSE

Problem: For the compound CCOC(=O)N1CCc2c(c(C(=O)NC3C4(C)CCC(C4)C3(C)C)nn2C2CCCCC2)C1 (stereo not shown) , is EC50 under 4 nM? FALSE

Problem: For the compound `C[C@@H](NC(=O)c1nn(-c2ccc(Cl)cc2Cl)c2c1CN(C=O)C/C2=C\c1ccc(F)cc1)c1ccccc1` , is EC50 under 4 nM? TRUE

Problem: For the compound `COC(=O)N1C/C(=C\c2ccc(OC)cc2)c2c(c(C(=O)N[C@H](C)c3ccccn3)nn2-c2ccc(Cl)cc2Cl)C1` , is EC50 under 4 nM? TRUE

* * *

Assignment: determine reported EC50 for the given molecules.
Target: CB1 receptor (human) (Homo sapiens, UniProt P21554)
Sequence (P21554 whole entry): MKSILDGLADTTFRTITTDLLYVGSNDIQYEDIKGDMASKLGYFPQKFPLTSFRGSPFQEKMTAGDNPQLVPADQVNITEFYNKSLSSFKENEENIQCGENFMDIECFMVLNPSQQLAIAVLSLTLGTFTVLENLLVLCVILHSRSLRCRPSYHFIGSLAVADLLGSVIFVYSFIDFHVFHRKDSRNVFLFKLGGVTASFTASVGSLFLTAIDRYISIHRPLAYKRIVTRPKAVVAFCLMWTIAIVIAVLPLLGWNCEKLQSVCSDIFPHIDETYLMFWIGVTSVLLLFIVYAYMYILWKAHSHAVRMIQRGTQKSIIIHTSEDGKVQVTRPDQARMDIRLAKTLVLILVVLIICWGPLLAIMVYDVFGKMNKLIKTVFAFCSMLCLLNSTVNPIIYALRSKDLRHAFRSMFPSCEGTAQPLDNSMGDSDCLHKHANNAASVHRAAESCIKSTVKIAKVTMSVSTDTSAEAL
Assay: cell-based
Give the value, in units of nM, as a plain number.

Returns the measured EC50 for the input molecule. Input: CCNC(=O)N1C/C(=C\c2ccc(OC)cc2)c2c(c(C(=O)NC(C)c3ccccn3)nn2-c2ccc(Cl)cc2Cl)C1 (stereo not shown) [Cpd 61] 5

Returns the measured EC50 for the input molecule. Input: COC(=O)N1C/C(=C\c2ccc(F)cc2)c2c(c(C(=O)N[C@@H](C)C3CCCCC3)nn2-c2ccc(Cl)cc2Cl)C1 [Cpd 7] 10

Returns the measured EC50 for the input molecule. Input: COC(=O)N1C/C(=C\c2ccc(F)cc2)c2c(c(C(=O)NC(C)c3ccccn3)nn2-c2ccc(Cl)cc2)C1 (stereo not shown) [Cpd 79] 3

Returns the measured EC50 for the input molecule. Input: CCNC(=O)N1C/C(=C\c2ccc(OC)cc2)c2c(c(C(=O)N[C@H](C)c3ccccc3)nn2-c2ccc(Cl)cc2Cl)C1 [Cpd 41] 0.2

* * *

Assignment: determine reported inhibition at 0.2 µM for the given compounds.
Target: Cannabinoid CB2 Receptor (Homo sapiens, UniProt P34972)
Construct: expressed in transfected cells
Sequence (P34972 whole entry): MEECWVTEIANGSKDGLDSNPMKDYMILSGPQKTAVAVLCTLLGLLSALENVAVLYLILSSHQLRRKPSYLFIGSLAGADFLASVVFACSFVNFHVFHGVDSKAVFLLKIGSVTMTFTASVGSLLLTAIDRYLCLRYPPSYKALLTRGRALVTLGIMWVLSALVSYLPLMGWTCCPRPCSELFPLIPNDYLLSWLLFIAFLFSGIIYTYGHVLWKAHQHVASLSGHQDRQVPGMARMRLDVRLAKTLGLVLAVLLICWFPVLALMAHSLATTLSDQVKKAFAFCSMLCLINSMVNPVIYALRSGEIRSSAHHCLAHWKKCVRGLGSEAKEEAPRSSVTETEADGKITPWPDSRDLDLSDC
Test: Binding assay for CB2 agonists or inverse agonists (radioligand competition, membranes of transfected SK-N-MC cells)
Settings: read-out: Cannabinoid CB2 Receptor Binding percent inhibition

Returns the measured inhibition at 0.2 µM for the input compound. Input: `C[C@@H](NC(=O)c1nn(-c2ccc(Cl)cc2)c2c1CN(S(C)(=O)=O)C/C2=C\c1ccc(F)cc1)c1ccccc1` 3%

Returns the measured inhibition at 0.2 µM for the input compound. Input: `CCNC(=O)N1C/C(=C\c2ccc(OC)cc2)c2c(c(C(=O)NN3CCCCC3)nn2-c2ccc(Cl)cc2Cl)C1` 28%

Returns the measured inhibition at 0.2 µM for the input compound. Input: COc1ccc(/C=C2\CNCc3c(C(=O)NN4CC5CCCC5C4)nn(-c4ccc(Cl)cc4Cl)c32)cc1 (stereo not shown) 20%

Returns the measured inhibition at 0.2 µM for the input compound. Input: `CCNC(=O)N1C/C(=C\c2ccc(F)cc2)c2c(c(C(=O)N[C@H](C)c3ccccc3)nn2-c2ccc(Cl)cc2Cl)C1` 10%

Returns the measured inhibition at 0.2 µM for the input compound. Input: `O=C(NN1CCCCC1)c1nn(-c2ccc(Cl)cc2Cl)c2c1CNC/C2=C\c1ccc(F)cc1` 5%

Returns the measured inhibition at 0.2 µM for the input compound. Input: `CS(=O)(=O)N1C/C(=C\c2ccc(F)cc2)c2c(c(C(=O)NN3CCCCC3)nn2-c2ccc(Cl)cc2Cl)C1` 15%

Returns the measured inhibition at 0.2 µM for the input compound. Input: `COc1ccc(/C=C2\CN(C(=O)OC(C)(C)C)Cc3c(C(=O)N[C@H](C)c4ccccn4)nn(-c4ccc(Cl)cc4Cl)c32)cc1` 27%

Returns the measured inhibition at 0.2 µM for the input compound. Input: `CCNC(=O)N1C/C(=C\c2ccc(OC)cc2)c2c(c(C(=O)N[C@H](C)c3ccccn3)nn2-c2ccc(Cl)cc2Cl)C1` 17%

Returns the measured inhibition at 0.2 µM for the input compound. Input: `C[C@@H](NC(=O)c1nn(-c2ccc(Cl)cc2Cl)c2c1CN(C(=O)OCc1ccccc1)C/C2=C\c1ccc(F)cc1)c1ccccc1` 27%

Returns the measured inhibition at 0.2 µM for the input compound. Input: CC(NC(=O)c1nn(-c2ccc(Cl)cc2Cl)c2c1CNC/C2=C\c1ccc(F)cc1)c1ccccn1 (stereo not shown) 5%

Returns the measured inhibition at 0.2 µM for the input compound. Input: `C[C@@H](NC(=O)c1nn(-c2ccc(Cl)cc2Cl)c2c1CN(C(=O)OC(C)(C)C)C/C2=C\c1ccc(F)cc1)c1ccccn1` 21%

Returns the measured inhibition at 0.2 µM for the input compound. Input: `COC(=O)N1C/C(=C\c2ccc(F)cc2)c2c(c(C(=O)N[C@H](C)c3ccccc3)nn2-c2ccc(Cl)cc2)C1` 19%

Returns the measured inhibition at 0.2 µM for the input compound. Input: `C[C@@H](NC(=O)c1nn(-c2ccc(Cl)cc2Cl)c2c1CNC/C2=C\c1ccc(F)cc1)c1ccccc1` 23%

Returns the measured inhibition at 0.2 µM for the input compound. Input: `COC(=O)N1C/C(=C\c2ccc(F)cc2)c2c(c(C(=O)N[C@H](C)c3ccccc3)nn2-c2ccc(Cl)cc2Cl)C1` 26%

Returns the measured inhibition at 0.2 µM for the input compound. Input: `CCOC(=O)CN1C/C(=C\c2ccc(OC)cc2)c2c(c(C(=O)NN3CCCCC3)nn2-c2ccc(Cl)cc2Cl)C1` 23%

Returns the measured inhibition at 0.2 µM for the input compound. Input: CC(NC(=O)c1nn(-c2ccc(Cl)cc2Cl)c2c1CN(C(=O)OC(C)(C)C)C/C2=C\c1ccc(F)cc1)c1ccccn1 (stereo not shown) 14%

Returns the measured inhibition at 0.2 µM for the input compound. Input: `CCNC(=O)N1C/C(=C\c2ccc(F)cc2)c2c(c(C(=O)N[C@H](C)c3ccccc3)nn2-c2ccc(Cl)cc2)C1` 0%

Returns the measured inhibition at 0.2 µM for the input compound. Input: CCNC(=O)N1C/C(=C\c2ccc(F)cc2)c2c(c(C(=O)NC(C)c3ccccn3)nn2-c2ccc(Cl)cc2Cl)C1 (stereo not shown) 6%

Returns the measured inhibition at 0.2 µM for the input compound. Input: COC(=O)N1C/C(=C\c2ccc(OC)cc2)c2c(c(C(=O)NN3CC4CCCC4C3)nn2-c2ccc(Cl)cc2Cl)C1 (stereo not shown) 63%

Returns the measured inhibition at 0.2 µM for the input compound. Input: COc1ccc(/C=C2\CN(S(=O)(=O)N(C)C)Cc3c(C(=O)NC(C)c4ccccn4)nn(-c4ccc(Cl)cc4Cl)c32)cc1 (stereo not shown) 62%

Returns the measured inhibition at 0.2 µM for the input compound. Input: CCNC(=O)N1C/C(=C\c2ccc(F)cc2)c2c(c(C(=O)NC(C)c3ccccn3)nn2-c2ccc(Cl)cc2)C1 (stereo not shown) 0%

Returns the measured inhibition at 0.2 µM for the input compound. Input: `COc1ccc(/C=C2\CN(C(=O)OC(C)(C)C)Cc3c(C(=O)NN4CCCCC4)nn(-c4ccc(Cl)cc4Cl)c32)cc1` 27%

Returns the measured inhibition at 0.2 µM for the input compound. Input: `C[C@@H](NC(=O)c1nn(-c2ccc(Cl)cc2Cl)c2c1CN(S(C)(=O)=O)C/C2=C\c1ccc(F)cc1)c1ccccc1` 36%

Returns the measured inhibition at 0.2 µM for the input compound. Input: `COc1ccc(/C=C2\CN(S(C)(=O)=O)Cc3c(C(=O)N[C@H](C)c4ccccc4)nn(-c4ccc(Cl)cc4Cl)c32)cc1` 47%

Returns the measured inhibition at 0.2 µM for the input compound. Input: CCNC(=O)N1C/C(=C\c2ccc(OC)cc2)c2c(c(C(=O)NC(C)c3ccccn3)nn2-c2ccc(Cl)cc2Cl)C1 (stereo not shown) 7%

Returns the measured inhibition at 0.2 µM for the input compound. Input: `CC(=O)N1C/C(=C\c2ccc(F)cc2)c2c(c(C(=O)N[C@H](C)c3ccccc3)nn2-c2ccc(Cl)cc2Cl)C1` 20%

Returns the measured inhibition at 0.2 µM for the input compound. Input: `CCOC(=O)CN1C/C(=C\c2ccc(OC)cc2)c2c(c(C(=O)N[C@H](C)c3ccccc3)nn2-c2ccc(Cl)cc2Cl)C1` 38%

Returns the measured inhibition at 0.2 µM for the input compound. Input: COc1ccc(/C=C2\CNCc3c(C(=O)NC(C)c4ccccn4)nn(-c4ccc(Cl)cc4Cl)c32)cc1 (stereo not shown) 19%
